B1: Cytoplasmic polyadenylation element-binding protein 2, residues 513 to 575; numbered along this chain, Q7Z5Q1 (parent)
chain: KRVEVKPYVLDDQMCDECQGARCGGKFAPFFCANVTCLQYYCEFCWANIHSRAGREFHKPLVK

Variants of: B1
ASSAY: abundance fitness (aPCA) (normalised: wild type 0, dead -1); higher = more abundant; growth selection in yeast, the domain comes from the species named
CONDITIONS USED: Homo sapiens
Reported abundance fitness values follow for various variants
QUANTITY KIND: abundance fitness

KRVEVKPYVLDDQMGDECQGARCGGKFAPFFCANVTCLQYYCEFCWANIHSRAGREFHKPLVK [C15G]; -0.531
KRVEVKPYVLDDQMCDECQGARCGGKFAPFDCANVTCLQYYCEFCWANIHSRAGREFHKPLVK [F31D]; -0.962
KRVEVKPYVLDDQMCDECQRARCGGKFAPFFCANVTCLQYYCEFCWANIHSRAGREFHKPLVK [G20R]; -0.522
KRVEVKPYVLDDQMCDECQGARCGGKFLPFFCANVTCLQYYCEFCWANIHSRAGREFHKPLVK [A28L]; -0.497
KRVEVKPYVLDDQMCDECQGARCGGKFAPFFCANVTCLQYYCEFCWANIISRAGREFHKPLVK [H50I]; -0.992
KRVEVKPYVLDDQMCIECQGARCGGKFAPFFCANVTCLQYYCEFCWANIHSRAGREFHKPLVK [D16I]; 0.042
KRVEVKPYVEDDQMCDECQGARCGGKFAPFFCANVTCLQYYCEFCWANIHSRAGREFHKPLVK [L10E]; 0.076
KRVEVKPYVLDDQMCDECQGARCGVKFAPFFCANVTCLQYYCEFCWANIHSRAGREFHKPLVK [G25V]; -0.323
KRVEVKPYVLDDQMCDECDGARCGGKFAPFFCANVTCLQYYCEFCWANIHSRAGREFHKPLVK [Q19D]; -0.056
KRVYVKPYVLDDQMCDECQGARCGGKFAPFFCANVTCLQYYCEFCWANIHSRAGREFHKPLVK [E4Y]; -0.275
KRVEPKPYVLDDQMCDECQGARCGGKFAPFFCANVTCLQYYCEFCWANIHSRAGREFHKPLVK [V5P]; 0.167
KRVEVKPYVLDDQMCDPCQGARCGGKFAPFFCANVTCLQYYCEFCWANIHSRAGREFHKPLVK [E17P]; -0.366
KRVEVKPYVLDDQMCDECQGARCGGKFAPFFCANVTFLQYYCEFCWANIHSRAGREFHKPLVK [C37F]; -0.85
KRVEVKPYVLDDQMCDECQGARCGGKFAPFFCANVTCLQYYCEFVWANIHSRAGREFHKPLVK [C45V]; -1.32
KRVPVKPYVLDDQMCDECQGARCGGKFAPFFCANVTCLQYYCEFCWANIHSRAGREFHKPLVK [E4P]; -0.145
KRVEVKPYVLDDQMCDECQGARCGGKFAPFFCANVPCLQYYCEFCWANIHSRAGREFHKPLVK [T36P]; -0.054
KRVEVKPYVLDDQMCDECQGARCGGKFAPFFCANVTCLQYYCEFCWANIHSRAGREFDKPLVK [H58D]; -0.704
KRVEVKPYVLDDQMCDECQGARCGGKFAPFFCANVTCLQYYCEFCWANIHSRNGREFHKPLVK [A53N]; 0.152
KRVEVKPYVLDDQMCDECQGARCGGKFAPFFCANVTCLQYYHEFCWANIHSRAGREFHKPLVK [C42H]; -0.818
KRVEVKPYVLDDQMCDECQGARCGGKRAPFFCANVTCLQYYCEFCWANIHSRAGREFHKPLVK [F27R]; -0.014
KRVEVKPYVLDDQMCDECQGAQCGGKFAPFFCANVTCLQYYCEFCWANIHSRAGREFHKPLVK [R22Q]; 0.1
KRVEVKPYVLDDQMCDECQGARCGGKFAPFFCANVTCLQYYCEFCWANIHSRAGREFHKPKVK [L61K]; 0.065
KRVGVKPYVLDDQMCDECQGARCGGKFAPFFCANVTCLQYYCEFCWANIHSRAGREFHKPLVK [E4G]; -0.234
KRVEVKPYVLDDQMCDECQGARCGGKFAPFFCANVTCLQYYCEFCRANIHSRAGREFHKPLVK [W46R]; -0.571
KRVEVKPYVLDDQMCDECQGARCGGKFAPFFCANVTCLQYYCEFCWANLHSRAGREFHKPLVK [I49L]; -0.033
KRVEVKPYVLDDQMCDECSGARCGGKFAPFFCANVTCLQYYCEFCWANIHSRAGREFHKPLVK [Q19S]; -0.071
KRVEVKPYVLDDQMCDECQHARCGGKFAPFFCANVTCLQYYCEFCWANIHSRAGREFHKPLVK [G20H]; -0.509
KRVEVKPYVLDDQMCDECQGAWCGGKFAPFFCANVTCLQYYCEFCWANIHSRAGREFHKPLVK [R22W]; -0.332
KRVEVKPYVLDDQMCDECQGARCGGKIAPFFCANVTCLQYYCEFCWANIHSRAGREFHKPLVK [F27I]; -0.218
KRVEVKPYVLLDQMCDECQGARCGGKFAPFFCANVTCLQYYCEFCWANIHSRAGREFHKPLVK [D11L]; -0.27
KRVEVKPYVLDDQMCDECQGYRCGGKFAPFFCANVTCLQYYCEFCWANIHSRAGREFHKPLVK [A21Y]; -0.32
KRVEVKPYVLDDQMCDECQGARCGGKFAPFFCANVTCLQYYCEFCWANIHSRAGREFRKPLVK [H58R]; -0.763
KRVEVKPYVLDDQMCDECQGARCGGKFAPFFCANVTCLQYYCECCWANIHSRAGREFHKPLVK [F44C]; 0.053
KRVEVKPYVLDDQMCSECQGARCGGKFAPFFCANVTCLQYYCEFCWANIHSRAGREFHKPLVK [D16S]; 0.193
KRVEVKPYVLDDQMCDESQGARCGGKFAPFFCANVTCLQYYCEFCWANIHSRAGREFHKPLVK [C18S]; -0.764
KRVEVKPYVLDDQMCDECQGARCGGKFAPFFCANVTCLQYYCEFCWANIHSRAGREFHFPLVK [K59F]; -0.541
